# Test system: HCC-2998 colon
# MEASUREMENT_NOTES: NCI tumour cell line growth inhibition, 48 h
What TGI was measured for each of the following?
Please give a number only; it is taken to be in µM.

stdin: Need TGI of Cc1cc(C)c(C#N)c(Sc2nc(C)c([N+](=O)[O-])c(C)c2C#N)n1 , thanks.
stdout: 15.8

stdin: Reported TGI, compound C#CC1=CC(=O)C(OC)=CC1=O : ____
stdout: 81.5

stdin: Form field: reported TGI of CC(C)=CCC[C@@H](C)C1=C(O)C(Nc2ccccc2I)=C(C)C(=O)C1=O
stdout: 56.7

====

Answer each item with its documented TGI.
# System: OVCAR-8 ovarian
# MEASUREMENT_NOTES: NCI tumour cell line growth inhibition, 48 h
Please state the figure in µM; there is no need to write the unit.

stdin: What TGI value was documented for this compound, O=C(c1ccc(Cl)cc1)N1CCN=C1c1cc2ccccc2c2ccccc12 ?
stdout: 33.5

stdin: Name the reported TGI value associated with the compound c1ccc(OCCC[P+](c2ccccc2)(c2ccccc2)c2ccccc2)cc1
stdout: 12.8

====

# Tested on: OVCAR-3 ovarian
# MEASUREMENT_NOTES: NCI tumour cell line growth inhibition, 48 h
Please provide measured TGI for the entries that follow.
Enter your answer as a number in µM; do not include the unit.

stdin: Item: Cc1c(C#N)cccc1[C@@H](C)Nc1nnc(C)c2cnc(N3CCOCC3)cc12 Test system: OVCAR-3 ovarian Read-out: TGI Value: ?
stdout: 66.1

stdin: API: value(readout= TGI, system= OVCAR-3 ovarian, query= O=C1/C(=C/c2ccc(F)cc2)CN(C(=O)CCN2CCC(=NO)CC2)C/C1=C\c1ccc(F)cc1 )
stdout: 3.02

stdin: Under OVCAR-3 ovarian: TGI value of CSc1nc2nc3c(nc2c(=O)n1C)C(=O)c1ccccc1C3=O ?
stdout: 0.21

stdin: Could you share what TGI was measured for Cc1ccccc1NC(=O)CC(=O)NNC(Sc1ccccc1)c1cc(N=Nc2ccc(Br)cc2)ccc1O (stereo not drawn) , tested on OVCAR-3 ovarian?
stdout: 4.91

stdin: Quick check: TGI on OVCAR-3 ovarian, item CNCCCNc1nc2ccccc2c2c(=O)c3cc(OC)ccc3sc12 ?
stdout: 3.43

stdin: Param readout = TGI; param system = OVCAR-3 ovarian; param query = CC(C)Oc1cccc(N2C(Nc3ccccc3)=Nc3ccncc3S2(=O)=O)c1 ; response: value
stdout: 52.4

stdin: Look up TGI with OVCAR-3 ovarian for this compound: N#CC1=C(N)Oc2c(ccc3ccccc23)C1c1cc(=O)oc2ccc(Cl)cc12 (stereo not drawn)
stdout: 12.3

stdin: Find TGI (OVCAR-3 ovarian) for the entry S=C1Cc2c(-c3ccc(Br)cc3)cc(-c3ccccc3)nc2-c2ccccc2N1
stdout: 6.93

stdin: API: value(readout= TGI, system= OVCAR-3 ovarian, query= O=C(c1ccc(Cl)cc1)N1CCN=C1c1cc2ccccc2c2ccccc12 )
stdout: 35.3

stdin: // map Cc1cc(C)c(C#N)c(Sc2nc(C)c([N+](=O)[O-])c(C)c2C#N)n1 to recorded TGI (system: OVCAR-3 ovarian)
stdout: 3.88

stdin: # value lookup — system OVCAR-3 ovarian, readout TGI, item CCOC(=O)Nc1ccc(S(=O)(=O)Nn2cnnc2)cc1
stdout: 77.4

stdin: Under OVCAR-3 ovarian: TGI value of O=C(O)c1ccccc1C1c2ccccc2Oc2ccccc21 ?
stdout: 90.1

stdin: # query: TGI | item C=C1CC(C)(c2cccc(Nc3nc4ccccc4c4occc34)c2)OC1=O (stereo not drawn) | system: OVCAR-3 ovarian
stdout: 17.5

stdin: Give TGI (OVCAR-3 ovarian) of the following compound: CC(=O)O[C@H]1CC2C(C3CCC(C(C)CCC(N)=O)[C@]31C)[C@H](OC(C)=O)C[C@@H]1CC3(CC[C@]21C)OOC1(CC[C@]2(C)C4C[C@H](OC(C)=O)[C@]5(C)C(C(C)CCC(N)=O)CCC5C4[C@H](OC(C)=O)C[C@@H]2C1)OO3 (stereo partly drawn)
stdout: 2.85

stdin: Enter reported TGI observed with OVCAR-3 ovarian for Cc1c([C@H](C)[C@@H]2NC[C@@H](C)C[C@H]2O)ccc2c1C[C@H]1[C@H]2CC=C2C[C@@H](O)CC[C@@]21C
stdout: 41.5

stdin: Record Cc1cc(-c2c(F)cc3c4nn([C@H]5CC[C@@H](N(C)C)CC5)c(=O)c-4cn(C4CC4)c3c2F)cc(C)n1 : what is its TGI with OVCAR-3 ovarian?
stdout: 2.66

stdin: Hi! What's the reported TGI for CC1(C)CC[C@]2(C(=O)O)CC[C@]3(C)[C@H](C(=O)C=C4[C@@]5(C)C=C(C#N)C(=O)C(C)(C)[C@@H]5CC[C@]43C)[C@@H]2C1 on OVCAR-3 ovarian?
stdout: 0.785

stdin: Identify the measured TGI of O=[N+]([O-])/C(C(Cl)=C(Cl)Cl)=C(/Nc1cccc2cccnc12)n1nnc2ccccc21 for OVCAR-3 ovarian.
stdout: 23.7

stdin: What reported TGI corresponds to CCCCCCCCOc1ccc(/C=C/C2=[N+](CCO)CCO2)cc1 on OVCAR-3 ovarian?
stdout: 28

stdin: Given the entry O=C1/C(=C/c2cccc3ccccc23)CCc2ccc([N+](=O)[O-])cc21 , what TGI was observed with OVCAR-3 ovarian?
stdout: 12.7

stdin: // map COc1ccc(-c2cncn2-c2cc(OC)c(OC)c(OC)c2)cc1 to recorded TGI (system: OVCAR-3 ovarian)
stdout: 0.0641

stdin: Lab request: please report TGI under test system OVCAR-3 ovarian for CCC(=O)OC1CCn2c1nc1c2C(=O)C(C)=C(NC(C)=O)C1=N (stereo not drawn)
stdout: 3.31
